Measured values drawn from patent US8822449B2 for this set.

# experimentalSystem: sodium-proton exchanger of subtype 3 (NHE3) (Homo sapiens, UniProt P48764)
# Construct: expressed in transfected cells
# Sequence (P48764 26-834, species assumed): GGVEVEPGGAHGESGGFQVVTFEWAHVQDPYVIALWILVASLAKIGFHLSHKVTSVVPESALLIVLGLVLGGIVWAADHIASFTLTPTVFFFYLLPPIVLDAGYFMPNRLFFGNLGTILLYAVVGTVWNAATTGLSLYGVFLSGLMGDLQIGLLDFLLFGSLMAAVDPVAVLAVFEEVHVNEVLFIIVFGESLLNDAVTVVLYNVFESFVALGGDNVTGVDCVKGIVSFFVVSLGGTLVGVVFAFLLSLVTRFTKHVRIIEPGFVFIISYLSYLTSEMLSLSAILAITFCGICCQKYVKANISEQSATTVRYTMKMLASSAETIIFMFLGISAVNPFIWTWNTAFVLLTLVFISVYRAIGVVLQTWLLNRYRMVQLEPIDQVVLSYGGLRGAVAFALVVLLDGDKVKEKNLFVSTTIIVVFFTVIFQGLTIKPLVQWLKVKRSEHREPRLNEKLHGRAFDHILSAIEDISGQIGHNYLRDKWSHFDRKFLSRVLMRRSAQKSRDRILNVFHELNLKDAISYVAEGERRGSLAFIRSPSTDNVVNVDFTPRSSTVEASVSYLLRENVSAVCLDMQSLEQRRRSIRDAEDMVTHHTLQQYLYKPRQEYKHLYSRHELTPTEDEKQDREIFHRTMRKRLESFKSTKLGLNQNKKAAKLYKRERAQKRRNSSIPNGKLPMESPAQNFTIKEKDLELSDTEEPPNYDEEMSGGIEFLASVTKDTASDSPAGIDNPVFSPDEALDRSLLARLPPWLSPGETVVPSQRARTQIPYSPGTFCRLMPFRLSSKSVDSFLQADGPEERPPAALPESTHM
# testDetails: Recovery of intracellular pH (pHi) after acidification in LAP1 cells stably expressing NHE3 (BCECF fluorescence, FLIPR)
# Assay type: cell-based
# testSettings: LAP1 cells stably expressing NHE3; pH recovery after acidification; range 1 is % inhibition at 10 μM; read-out: Activity range (inhibitory effect on NHE3)
Overview of reported IC50 across a group of compounds:
readoutName: IC50

| compound | readoutName | assayValue |
| --- | --- | --- |
| c1ccc2c(c1)C[C@H](N1CCCC1)[C@H]2Oc1cccc2cccnc12 (racemic) | IC50 | 1000 to 10000 nM |
| Cc1nnc(C)n1-c1ccc(O[C@H]2c3ccccc3C[C@@H]2N2CCCC2)c(Cl)c1 [Example 491] | IC50 | < 1000 nM |
| CS(=O)(=O)c1ccc(O[C@H]2c3ccccc3C[C@@H]2N2CCCC2)c(Cl)c1Cl (racemic) | IC50 | < 1000 nM |
| NC(=O)Nc1cccc(O[C@@H]2c3ccccc3C[C@H]2N2CCC[C@@H](N)C2)c1 (racemic) | IC50 | < 1000 nM |
| CC(C)[C@H]1COC(=O)N1c1ccc(F)c(O[C@H]2c3cc(Cl)cc(F)c3C[C@@H]2N2CC[C@@H](O)C2)c1 | IC50 | 1000 to 10000 nM |

* * *

# experimentalSystem: sodium-proton exchanger of subtype 3 (NHE3) (Homo sapiens, UniProt P48764)
# Construct: expressed in transfected cells
# testDetails: Recovery of intracellular pH (pHi) after acidification in LAP1 cells stably expressing NHE3 (BCECF fluorescence, FLIPR)
# Assay type: cell-based
# testSettings: LAP1 cells stably expressing NHE3; pH recovery after acidification; range 1 is % inhibition at 10 μM; read-out: Activity range (inhibitory effect on NHE3)
pIC50: −log10 of the molar value.

| compound | pIC50 |
| --- | --- |
| CCN(CC)[C@@H]1Cc2ccccc2[C@H]1Oc1ccc2c(c1)C(C)C(=O)N2C (mixture of isomers) | 5.00 to 6.00 |
| Cc1nc2cc(O[C@@H]3c4ccccc4C[C@H]3N3C[C@H]4CNC[C@H]4C3)ccc2s1 (racemic) | 5.00 to 6.00 |
| CS(=O)(=O)c1ccc(O[C@H]2c3c(ccc(Cl)c3Cl)C[C@@H]2N2CCCNCC2)cc1 (racemic) | > 6.00 |
| CS(=O)(=O)c1cc(Cl)c(O[C@H]2c3ccccc3C[C@@H]2N2CCCC2)c(Cl)c1 (racemic) | 5.00 to 6.00 |
| CN1CCCN([C@H]2Cc3c(Cl)cc(Cl)cc3[C@@H]2Oc2ccc(C#N)cc2F)CC1 | > 6.00 |
| Cc1nc(C(C)(C)C)cn1-c1ccc(O[C@H]2c3cc(Cl)cc(Cl)c3C[C@@H]2N2CC[C@@H](O)C2)c(F)c1 | 5.00 to 6.00 |
| CC(=O)Nc1cccc(O[C@@H]2c3ccccc3C[C@H]2N2CCC(CN)CC2)c1 (racemic) | 5.00 to 6.00 |
| c1ccc2c(c1)C[C@H](N1CCCC1)[C@H]2Oc1ccc(-c2nccs2)cc1 (racemic) | 5.00 to 6.00 |
| CS(=O)(=O)c1ccc(O[C@H]2c3cc(Cl)cc(Cl)c3C[C@@H]2N2CC3C[C@H]2CN3)cc1 | > 6.00 |
| Clc1cc(Cl)c2c(c1)[C@H](Oc1ccc(-n3cncn3)cc1)[C@@H](N1CC3CNCC3C1)C2 (mixture of isomers) | > 6.00 |
| Cc1nnc(C)n1-c1ccc(O[C@H]2c3ccccc3C[C@@H]2N2CCC[C@@H](NCCC(F)(F)F)C2)cc1 | 5.00 to 6.00 |
